Sourced from the OPERA property sets (Mansouri et al. 2018)

Tick met if log10 vapour pressure (mmHg) is -2 or greater. Tick not met if log10 vapour pressure (mmHg) is less than -2.

# COMPOUND, CLASS
measured = [
    ("OCC#CCO", "not met"),
    ("CC(Cl)Cl", "met"),
]

Prompt: Could you tell me if the measured log10 vapour pressure (mmHg) of C=CC(C)(C)C reaches -2 or more?
Response: met

Prompt: Can CCCCCCCF be said to have log10 vapour pressure (mmHg) at or above -2?
Response: met

Prompt: Threshold query (log10 vapour pressure (mmHg) >= -2) on CNC(=O)O/N=C(\C)C(C)S(C)(=O)=O (stereo not drawn)
Response: not met

Prompt: Does log10 vapour pressure (mmHg) meet or surpass -2 for Nc1ccccc1-c1ccccc1N ?
Response: not met

Prompt: Is the recorded value of log10 vapour pressure (mmHg) equal to or greater than -2 for this compound? CCCCCCCCCCCCCc1ccccc1
Response: not met

Prompt: Could you please find out whether CN1CCCCC1 has log10 vapour pressure (mmHg) that meets -2 or exceeds it?
Response: met

Prompt: Kindly determine if log10 vapour pressure (mmHg) recorded for Clc1ccc2ccccc2c1Cl is above or exactly -2.
Response: not met

Prompt: Is reported log10 vapour pressure (mmHg) greater than or equal to -2 here: C=CCl
Response: met

Prompt: # check: log10 vapour pressure (mmHg) of C=CCCCCCCCC is greater than or equal to -2
Response: met

Prompt: Does Nc1ccc(Nc2ccc([N+](=O)[O-])cc2[N+](=O)[O-])cc1 have a reported log10 vapour pressure (mmHg) of at least -2?
Response: not met

Prompt: Quick check: does CN(C)C=O have log10 vapour pressure (mmHg) greater than or equal to -2?
Response: met

###

The label condition met is reserved for boiling point strictly under 200 °C; condition not met covers values equal to or above it.

# COMPOUND, CLASS
records = [
    ("N#CSCc1ccccc1", "condition not met"),
    ("Cc1cc(O)c(Cl)cc1Cl", "condition not met"),
    ("CCOCCOCC", "condition met"),
    ("N#CC1CC1", "condition met"),
    ("c1ccc(C2CCOCO2)cc1 (stereo not drawn)", "condition not met"),
    ("ClC(Cl)=C(Cl)C(Cl)Cl", "condition met"),
    ("CCC(c1ccccc1)c1ccccc1", "condition not met"),
]

Here's the next entry for you.
Prompt: Consider the compound CCCC(C)C(CC)CC (stereo not drawn) . Is its boiling point strictly less than 200 °C?
Response: condition met

###

Kindly supply the reported log10 vapour pressure (mmHg) values for the records listed here.

# INPUT_SMILES, MEASUREMENT
measured = [
    ("ClC(Cl)=C(c1ccc(Cl)cc1)c1ccccc1Cl", -5.21),
]

Count: 3. Required value per item: log10 vapour pressure (mmHg).
1. O=C(O)c1nc(Cl)ccc1Cl
2. COP(=O)(OC)OC=C(Cl)Cl
3. CCCCC(CC)(CO)CO

Response:
[-4.92, -1.8, -4]

###

melting point of 100 °C or higher: True. Under 100 °C: False.

# COMPOUND, CLASS
measured = [
    ("COc1ccccc1OCCNCC(O)COc1cccc2[nH]c3ccccc3c12 (stereo unspecified)", "True"),
    ("CN(C)c1ccc(C(=O)O)cc1", "True"),
    ("Cc1csc(S)n1", "False"),
    ("O=C1C=CC(=O)c2ccccc21", "True"),
    ("O=S(=O)(O)CCNC1CCCCC1", "True"),
]

Prompt: Does the compound C=C(C)C(N)=O have recorded melting point that is 100 °C or more?
Response: True

Prompt: Has CC(C)c1cccc(C(C)C)c1N a recorded melting point greater than or equal to 100 °C?
Response: False

Prompt: Exam item: decide whether the reported melting point for Cc1cnc(NS(=O)(=O)c2ccc(N)cc2)nc1 is at least 100 °C.
Response: True

Prompt: API: above_or_equal(metric=melting point, cutoff=100 °C) for item O=c1[nH]c(=O)n([C@H]2C[C@H](O)[C@@H](CO)O2)cc1Br
Response: True

Prompt: Reported melting point at or above 100 °C? CN1[C@H]2CC[C@@H]1[C@@H](C(=O)O)[C@H](O)C2
Response: True

Prompt: hey, is melting point for this one >= 100 °C? O=C(Nc1ccc(Cl)c(Cl)c1)c1cc(Cl)ccc1O
Response: True

Prompt: Item CC(=O)c1ccc(O[C@@H]2O[C@H](CO)[C@@H](O)[C@H](O)[C@H]2O)cc1 with melting point of 100 °C or above?
Response: True

Prompt: Does melting point meet or surpass 100 °C for CCN(CCO)CCn1c(Cc2ccccc2)nc2c1c(=O)n(C)c(=O)n2C ?
Response: False

Prompt: Evaluate O=Nc1ccc(Nc2ccccc2)cc1 : melting point at minimum 100 °C?
Response: True

Prompt: Could you tell me if the measured melting point of O=Cc1ccc([N+](=O)[O-])o1 reaches 100 °C or more?
Response: False

###

VALUE_KIND: melting point (°C)
One number for each entry, in °C.

These recorded examples may help you get a feel for the data.
# COMPOUND, melting point, °C
rows = [
    ("CCOc1ccc(NC(=O)OC(C)C)cc1OCC", 100),
    ("CC(=O)O[C@H]1C[C@@H]2CC[C@@H]3[C@H](CC[C@@]4(C)[C@H]3C[C@H]([N+]3(C)CCCCC3)[C@@H]4OC(C)=O)[C@@]2(C)C[C@@H]1[N+]1(C)CCCCC1.[Br-].[Br-]", 215),
    ("C=CCC1(C(C)C)C(=O)NC(=O)NC1=O", 141),
    ("C1CCC2C(C1)CCC1C3CCCCC3CCC21 (stereo unspecified)", 115),
    ("CC(=O)NCCSC(C)=O", 32.5),
    ("O=C1CCCCCCN1", 36.5),
    ("COc1ccc(CCCC(=O)O)cc1", 57.5),
    ("ClCc1ccc2ccccc2c1", 48.5),
    ("FC(F)(Cl)CBr", -76),
    ("CCCCCCN1CC(C(=O)OC)CC1=O (stereo unspecified)", 4),
]

Look at each compound and report its melting point.
1. C=CC[C@]1(O)CC[C@H]2[C@@H]3CCC4=CCCC[C@@H]4[C@H]3CC[C@@]21C
2. CCc1cccc(C)c1N(C(=O)CCl)C(C)COC (stereo unspecified)
3. O=C(O)C(Cl)(Cl)Cl
4. CC1(C)[C@H](C(=O)O)CC[C@]1(C)C(=O)O
5. COC(F)(F)C(Cl)Cl
6. CC1CCC(C)C(C)C1C (stereo unspecified)
7. N=C(N)N
8. CCN(CC)CCNC(=O)c1cc(Cl)c(N)cc1OC

Response:
1. 80
2. -51
3. 57.5
4. 189
5. -35
6. -75
7. 50
8. 147

For each of the compounds below, state melting point.
1. CCCCOC(=O)C(C)O (stereo unspecified)
2. NNCc1ccccc1
3. Cl.NCCc1ccccc1
4. CCOCn1c(-c2ccc(Cl)cc2)c(C#N)c(Br)c1C(F)(F)F
5. C1COCOC1

Response:
-28
26
218
100
-45

Look up melting point for the entries below, preserving their order.
1. Nc1cccc(N)c1N
2. c1ccncc1
3. CC1=CCC2C(C)(C)CCC[C@]2(C)[C@@]12CC[C@](C)(CC(=O)O)O2 (stereo partly specified)

Response:
1. 103
2. -41.6
3. 100

###

Mark each entry yes if its log10 Koa sits below 7, and no for all others.

Look over these answered cases.
# INPUT_SMILES, CLASS
data = [
    ("Clc1ccc2c(Cl)c(Cl)cc(Cl)c2c1", "no"),
    ("Clc1ccc(-c2c(Cl)cc(Cl)c(Cl)c2Cl)c(Cl)c1Cl", "no"),
    ("Clc1ccc(-c2ccccc2Cl)cc1", "no"),
    ("Clc1cc2c(oc3cc(Cl)c(Cl)c(Cl)c32)c(Cl)c1Cl", "no"),
    ("Clc1ccc2c(Cl)cc(Cl)c(Cl)c2c1", "no"),
    ("CCI", "yes"),
]

Then this compound:
Prompt: Is log10 Koa strictly under 7 for the entry ClC(Cl)=C(c1ccc(Cl)cc1)c1ccc(Cl)cc1 ?
Response: no

###

# binarize boiling point: threshold 200 °C inclusive, high side satisfied, low side not satisfied

Here's what some known entries look like.
# COMPOUND, CLASS
records = [
    ("CCCCCCCCCCCCCCc1ccccc1", "satisfied"),
    ("C[Si](C)(C)O[Si](C)(C)O[Si](C)(C)O[Si](C)(C)O[Si](C)(C)O[Si](C)(C)C", "satisfied"),
    ("N#CCc1ccc(N)cc1", "satisfied"),
    ("Cc1cccc2c(C)cccc12", "satisfied"),
]

Prompt: Please indicate if the recorded boiling point for CCc1cccc(C)c1N meets or exceeds 200 °C.
Response: satisfied
